MEASUREMENT NOTES: Biodistribution of 177Lu-labeled αMSH analogues in mice bearing SK-MEL-1 human melanoma
CONDITION: male, NRG (NOD.Cg-Rag1tm1Mom I12rgtm1Wjl/SzJ), mouse, seminal glands, iv, total radioactivity
Form field: tissue uptake at 1 h (one value per entry).

COMPOUND | tissue uptake at 1 h
CCCC[C@H](NC(=O)CN1CCC(NC(=O)[C@H](CCCCNC(=O)CN2CCN(CC(=O)O)CCN(CC(=O)O)CCN(CC(=O)O)CC2)NC(=O)[C@H](CCC(=O)O)NC(=O)CCCc2ccc(I)cc2)CC1)C(=O)N[C@H]1CC(=O)NCCCC[C@@H](C(N)=O)N(C)C(=O)[C@H](Cc2c[nH]c3ccccc23)NC(=O)[C@H](CCCNC(=N)N)N(C)C(=O)[C@@H](Cc2ccccc2)NC(=O)[C@H](Cc2c[nH]cn2)NC1=O [^177Lu-labeled CCZ01118, metal not drawn] | 0.59 %ID/g
CCCC[C@H](NC(=O)CN1CCC(NC(=O)[C@H](CCCCNC(=O)CN2CCN(CC(=O)O)CCN(CC(=O)O)CCN(CC(=O)O)CC2)NC(=O)CNC(=O)CCCc2ccc(I)cc2)CC1)C(=O)N[C@H]1CC(=O)NCCCC[C@@H](C(N)=O)N(C)C(=O)[C@H](Cc2c[nH]c3ccccc23)NC(=O)[C@H](CCCNC(=N)N)N(C)C(=O)[C@@H](Cc2ccccc2)NC(=O)[C@H](Cc2c[nH]cn2)NC1=O [^177Lu-labeled CCZ01148, metal not drawn] | 1.81 %ID/g

Shifting focus to the compound that follows.
Problem: Name the recorded tissue uptake at 1 h for CCCC[C@H](NC(=O)CN1CCC(NC(=O)[C@H](CCCCNC(=O)CN2CCN(CC(=O)O)CCN(CC(=O)O)CCN(CC(=O)O)CC2)NC(=O)CNC(=O)CCCc2ccc(-c3ccc(C)cc3)cc2)CC1)C(=O)N[C@H]1CC(=O)NCCCC[C@@H](C(N)=O)N(C)C(=O)[C@H](Cc2c[nH]c3ccccc23)NC(=O)[C@H](CCCNC(=N)N)N(C)C(=O)[C@@H](Cc2ccccc2)NC(=O)[C@H](Cc2c[nH]cn2)NC1=O [^177Lu-labeled CCZ01158, metal not drawn] .
Result: 1.8 %ID/g
